# systemUnderTest: 14-3-3σ/ERα (Homo sapiens, UniProt P03372+P31947)
# Construct: The 14-3-3 σ isoform (full-length for mass spectrometry and fluorescence anisotropy assays, ΔC for crystallography); made in house; host or cells: E. coli Rosetta 2(DE3)pLysS, pPROEX HTb vector
# Sequence (P31947 whole entry, other chains not shown, canonical isoform): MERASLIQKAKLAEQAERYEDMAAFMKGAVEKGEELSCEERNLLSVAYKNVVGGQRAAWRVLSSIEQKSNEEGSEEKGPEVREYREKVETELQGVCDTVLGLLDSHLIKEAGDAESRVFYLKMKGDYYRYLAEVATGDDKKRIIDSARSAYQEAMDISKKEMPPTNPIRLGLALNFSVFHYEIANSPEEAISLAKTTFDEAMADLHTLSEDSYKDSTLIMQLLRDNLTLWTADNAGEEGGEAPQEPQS
# experimentalDetails: Mass spectrometry dose response, compound binding to 14-3-3σ in the presence of ERα phosphopeptide
# assayContext: 100 nM compound, 100 nM 14-3-3σ, ERα-peptide 2 µM, 8h
experimentalReadout: Percentage (%) bound of compound to 14-3-3σ, ERα 8h

P: O=C(CCl)NCC1CCN(C(=O)C2(Oc3ccc(Cl)cc3)CCCCC2)CC1
Q: O=C(CCl)N1CCC2(CC1)CC(NC(=O)C1(Nc3ccc(Cl)cc3)CCOCC1)C2
R: O=C(CCl)NCC1CCN(C(=O)C2(Nc3ccc(Cl)cc3)CCC(F)(F)CC2)CC1
S: O=C(CCl)NCC1CCN(C(=O)C2(Oc3ccc(Cl)cc3)CC2)CC1
T: O=C(CCl)NCCCC1CCN(C(=O)C2(Nc3ccc(Cl)cc3)CCNCC2)CC1
Req: List the 5 entries from lowest Percentage (%) bound of compound to 14-3-3σ, ERα 8h to highest Percentage (%) bound of compound to 14-3-3σ, ERα 8h value. Sort the labels as requested; that list is your answer.
Resp: S, P, R, T, Q
(S: 0.9%, P: 7.1%, R: 30.0%, T: 44.7%, Q: 80.4%)

a: O=C(CCl)NCC1CCN(C(=O)C2(Nc3ccc(Cl)cc3)CCNCC2)CC1
b: O=C(CCl)NCC1CC2(CCN(C(=O)C3(Nc4ccc(Cl)cc4)CCOCC3)CC2)C1
Req: Field: entry with larger Percentage (%) bound of compound to 14-3-3σ, ERα 8h (options a / b ). Your choice should be expressed through its label.
Resp: a
(a: 82.2%, b: 5.0%)

These entries and their values trace back to paper PMC10515640.
